# key: entry, value: inhibition
MEASUREMENT NOTES: blockers of ER-stress CHOP reporter expression – cell-based, unfolded protein response, luciferase reporter, primary screen (AID 2732);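 also: 0% = tunicamycin plus vehicle and 100% = wells without tunicamycin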
TEST CONDITIONS: CHO-K1 CHOP-promoter luciferase, tunicamycin-induced, 15-18 h; at 10 µM; stronger effect = higher value
About 8,200 (3.7%) of roughly 220,000 compounds were called active. Only a selection was taken, and actives are over-represented in it overall.
Numbers only; they are read as %.

>>> df
                                   compound  measured_property  reported_measurement
0  CCOC(=O)C1=C(CSc2nccn2C)NC(=O)NC1c1ccc(OC)cc1 (configuration not stated)         inhibition                  34.2
1  COc1ccc(/C=N/NS(=O)(=O)c2ccc(NC(C)=O)cc2)cc1         inhibition                  1.32
2                 CO/N=C/CC(=O)c1ccc(OC)cc1         inhibition                 -19.6
3             CNC(=S)NNC(=O)c1ccc(N(C)C)cc1         inhibition                 -5.96
4      Cc1ccc(NC(=O)Nc2nnc(-c3ccncc3)s2)cc1         inhibition                  40.9

Exercise: Which inhibition value belongs to Cc1nn(Cc2ccc(Cl)cc2)c(Cl)c1/C=N/NC(=O)CNc1ccccc1F ?
Key: 96.1

Exercise: Give its inhibition value. Item: CC(C)(C)c1nnc(NC(=O)C2c3ccccc3Oc3ccccc32)s1
Key: 45.8

Exercise: Tell me the measured inhibition of CCOC(=O)N1CCN(C(=O)C2CCN(Cc3ccc(OC)cc3OC)CC2)CC1 , please.
Key: 18.3

Exercise: Which inhibition value belongs to O=C(Nc1nnc(SCc2ccc(Cl)cc2Cl)s1)C1COc2ccccc2O1 (configuration not stated) ?
Key: 71.3

====

MEASUREMENT NOTES: blockers of ER-stress CHOP reporter expression – cell-based, unfolded protein response, luciferase reporter, primary screen (AID 2732);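 also: 0% = tunicamycin plus vehicle and 100% = wells without tunicamycin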
TEST CONDITIONS: CHO-K1 CHOP-promoter luciferase, tunicamycin-induced, 15-18 h; at 10 µM; stronger effect = higher value
Out of some 220,000 compounds screened, about 8,200 (3.7%) were called active. What follows is part of a selection rich in actives, with near analogues and random picks from the rest.
Please use Y whenever inhibition is not below 20%, and N whenever it is.

Illustrative cases are given below, each with its answer.
COMPOUND	CLASS NAME
COc1ccc(COC(=O)c2n[nH]c3ccccc23)cc1F	Y
CCN(CC)S(=O)(=O)c1ccc(C)c(NC(=O)COc2ccc(Br)cc2Cl)c1	Y
CCOC(=O)c1c(NC(=O)NC(C)(C)C)sc2c1CCN(C)C2	N

Exercise: Determine whether measured inhibition meets or exceeds 20% for O=C(COC(=O)c1n[nH]c2ccccc12)NCc1ccccc1
Key: Y

Exercise: Does the compound Cc1ncn2cc(-c3ccc(Cl)cc3Cl)[nH]c(=O)c12 have recorded inhibition that is 20% or more?
Key: N

Exercise: In plain terms: is recorded inhibition at least 20% for O=C(Nc1ccc(Cl)cc1)OCc1cc(-c2ccccc2)on1 ?
Key: Y

Exercise: Check if inhibition >= 20% (inclusive). Item: C#CCOCCOCCOCCNc1nc(N2CCN(C(=O)[C@H](CCC(=O)O)n3cc(C(N)CO)nn3)CC2)nc(N2CCN(C(=O)[C@H](CCCCN)n3cc(C(N)[C@H](C)CC)nn3)CC2)n1 (stereo not given in full)
Key: N

Exercise: Given Cc1sc2nc(CSCC(=O)Nc3c(Cl)cccc3Cl)[nH]c(=O)c2c1C , state whether its inhibition is at least 20%.
Key: N

Exercise: Would you say COP1(=O)C[C@@H](O)[C@@H](O)[C@@H](COCc2ccccc2)O1 (stereo not given in full) shows inhibition at minimum 20%?
Key: N

Exercise: Reported inhibition reaches at least 20% for CCn1c(SCC(=O)Nc2ccc3c(c2)OCCO3)nc2c(c1=O)SC(C)C2 (stereo not given) ?
Key: N

Exercise: Check this compound for inhibition at or above 20%: CSc1ccc(S(=O)(=O)NC2CCCCC2)cc1
Key: N

Exercise: I'd appreciate it if you could say whether CCCCCCCC(=O)OC(CN1CCCCCC1)CN1CCCC1=O (stereo not given) has inhibition at least equal to 20%.
Key: N

Exercise: Test whether the compound Cc1nc(-c2nnc(SCC(=O)Nc3cc(C(F)(F)F)cc(C(F)(F)F)c3)n2C)cs1 records inhibition of 20% or higher.
Key: Y

Exercise: Check if inhibition >= 20% (inclusive). Item: Cc1sc2nc(COC(=O)C(NC(=O)c3ccc(Cl)cc3Cl)C(C)C)[nH]c(=O)c2c1C (stereo not given)
Key: Y

Exercise: Assess whether reported inhibition for Cc1ccc(C(=O)NNC2=Nc3cc([N+](=O)[O-])ccc3OC2)cc1 sits at 20% or higher.
Key: N

====

MEASUREMENT NOTES: blockers of ER-stress CHOP reporter expression – cell-based, unfolded protein response, luciferase reporter, primary screen (AID 2732);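 also: 0% = tunicamycin plus vehicle and 100% = wells without tunicamycin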
TEST CONDITIONS: CHO-K1 CHOP-promoter luciferase, tunicamycin-induced, 15-18 h; at 10 µM
The whole screen tested about 220,000 compounds, of which about 8,200 (3.7%) were called active.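 The calls were made as follows: active = compounds that reduced the stress-induced luciferase reporter signal by more than about 70% of percent inhibition (limit read from the data); inactive = the rest.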 The full list was thinned out, with actives kept by preference.
Write down the outcome that applies. Available outcomes: yes (active), no (inactive)

Look over these answered cases.
>>> print(df.to_string())
                                   compound  class_name
0  CSCC[C@H](NC(=O)CCCn1nnc2ccccc2c1=O)C(=O)O          no
1  O=C(NN1C(=O)C2C(C1=O)C1C=CC2C12CC2)c1ccccc1Cl (centres undefined)          no
2  Cc1cccc(-n2c(C)cc(/C=N\NC(=O)c3cccs3)c2C)c1          no
3    COc1cc([N+](=O)[O-])ccc1NC(=O)CN1CCCC1          no
4            COCC(=O)N=Nc1c(O)[nH]c2ccccc12          no

Exercise: Record request — test call for COc1ccc(-c2nc(-c3ccccc3)no2)c(OC)c1
Key: yes

Exercise: What was the test verdict on Cc1nc(-c2ccc(Cl)cc2)sc1C1(C)CC(c2ccccc2F)=NO1 (centres undefined) ?
Key: no

Exercise: Dear colleague, could you share the recorded outcome for O=S(=O)(Nc1ccc(OC(F)(F)F)cc1)c1cccc2nonc12 when you have a moment?
Key: no

Exercise: Assay result, entry Cc1ccc2c(c1)c1ncn(Cc3ccc(F)cc3)c(=O)c1n2C — outcome?
Key: no

Exercise: Hi team, can someone confirm the assay call for COc1ccc(CCNC(=O)C(=O)NCC2CCNCC2)cc1OC ?
Key: no

====

MEASUREMENT NOTES: blockers of ER-stress CHOP reporter expression – cell-based, unfolded protein response, luciferase reporter, primary screen (AID 2732);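 also: 0% = tunicamycin plus vehicle and 100% = wells without tunicamycin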
TEST CONDITIONS: CHO-K1 CHOP-promoter luciferase, tunicamycin-induced, 15-18 h; at 10 µM
Out of some 220,000 compounds screened, about 8,200 (3.7%) were called active.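 Rule for the calls: active = compounds that reduced the stress-induced luciferase reporter signal by more than about 70% of percent inhibition (limit read from the data); inactive = the rest.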 The sample as a whole holds a higher share of actives than the screen did.
Entry note: the call must match one of active, inactive

Take a look at these entries with their results.
>>> print(df.to_string())
                                 smiles_str  class_name
0  CCOC(=O)Cn1c2c(c(-c3ccccc3OC)cc1=O)CCCC2      active
1  NNC(=O)c1oc2nc(-c3ccccc3)cc(-c3ccco3)c2c1N    inactive
2    Cn1nc(C(C)(C)C)c([N+](=O)[O-])c1C(N)=O    inactive
3               CCOC(=O)CN1CCC(c2ccccc2)CC1    inactive

Switching to the query record.
Exercise: Field: outcome | Entry: Cn1nccc1NS(=O)(=O)c1ccc(F)cc1
Key: inactive

====

MEASUREMENT NOTES: blockers of ER-stress CHOP reporter expression – cell-based, unfolded protein response, luciferase reporter, primary screen (AID 2732);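 also: 0% = tunicamycin plus vehicle and 100% = wells without tunicamycin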
TEST CONDITIONS: CHO-K1 CHOP-promoter luciferase, tunicamycin-induced, 15-18 h; at 10 µM; stronger effect = higher value
The campaign covered roughly 220,000 compounds. About 8,200 (3.7%) were called active. Only a selection was taken, and actives are over-represented in it overall.
MEASURED PROPERTY: inhibition

Before answering, review these 5 worked examples.
In [3]: df
Out[3]:
                                   molecule  reported_measurement
0  O=C(Nc1nc2ccc(S(=O)(=O)N3CCCC3)cc2s1)C1CCCO1 (stereo not drawn)      9.58% (inactive)
1  Cn1c2ccccc2c2cc(/C=C(\NC(=O)c3ccccc3)C(=O)NCC(=O)O)ccc21     -15.8% (inactive)
2                 CCOc1cc(/C=N/O)cc(Br)c1OC      23.6% (inactive)
3  O=C(O)c1ccccc1C(=O)Nc1ccccc1[N+](=O)[O-]     -7.32% (inactive)
4  COc1cc(/C=N/NC(=O)c2ccccc2)ccc1OS(=O)(=O)c1ccccc1     -6.49% (inactive)

We next turn to a different molecule, shown below.
Exercise: Recorded inhibition of O=C(NCc1ccco1)C1CCCN1S(=O)(=O)c1ccccc1C(F)(F)F (stereo not drawn) , please.
Key: 14.3% (inactive)
